- test name: Free Ca2+ after addition of test substance, fluorimetric with FURA 2
- Type: physicochemical
- run conditions: free Ca²⁺ after addition of 1 mmol (1 mM) test substance; pH 7,1; control without fatty acid 200
Strictly below 200 nmol in Konz. Ca²⁺: Criterion met. Otherwise: Criterion not met.

CCCCCCCCCCCCCCC(O)C(=O)O (stereo not drawn) [alpha-Hydroxypalmitinsäure] = Criterion met

Okay, next one:
Threshold test, Konz. Ca²⁺ < 200 nmol: "CCCCCCCCCCCCCC(=O)O"
Criterion not met

====

- test name: Free Ca2+ after addition of test substance, fluorimetric with FURA 2
- Assay type: physicochemical
- run conditions: free Ca²⁺ after addition of 1 mmol (1 mM) test substance; pH 7,1; control without fatty acid 200
- Method: Die erfindungsgemäßen alpha-Hydroxyfettsäuren haben gegenüber Schwermetallionen, z.B. Fe²⁺ oder Erdalkali-Ionen wie Ca²⁺ eine hohe Bindungsfähigkeit, wie die folgende Untersuchung zeigt: a) Konzentration an freiem Ca²⁺ nach Zugabe von 1 mmol Testsubstanz Der Testpuffer (100 mM KCl, 10 mM HEPES, 1 mM EGTA 0,5 mM CaCl₂, pH 7,1) wurden mit je 1 mM der Testsubstanz versetzt. Entstehende Niederschläge wurden abfiltriert. Das Filtrat wurde mit KOH auf pH 7,1 eingestellt und mit 1 µM FURA 2 versetzt. […]
measurement label: Konz. Ca²⁺ (nmol)
# unit: nmol | format: bare number

In the examples that follow, each entry is paired with its recorded Konz. Ca²⁺.
CCCCCCCCCCCCCCCC(=O)O = 249
O=C(O)CC(O)(CC(=O)O)C(=O)O = 139
O=C(O)CN(CCN(CC(=O)O)CC(=O)O)CC(=O)O = 25
O=C(O)C(O)c1ccccc1 (centres unmarked) = 200

Now take the following compound into account.
Bench note: what Konz. Ca²⁺ did CCCCCCCCCCCCC(O)C(=O)O (stereo not drawn) [alpha-Hydroxy-myristinsäure] show?
32
